Cited source: paper PMC6572376

Biological target: murine eIF4E (Mus musculus)
Assay: Pyrene fluorescence intensity competition binding assay for eIF4E
Conditions: 30 °C; 75 nM eIF4E, 10 nM pyrene-labeled probe; triplicate
Assignment: determine reported IC50 for the given molecules.
One number for each entry, in µM.

Would you please look over these solved cases?
C#CCn1c(N)nc2c(ncn2C2OC(COP(=O)(O)CP(=O)(O)OP(=O)([O-])OCC3OC(n4c[n+](C)c5c(O)nc(N)nc54)C(O)C3O)C(O)C2O)c1=O (stereo not drawn); 6.04
C#CCn1c(N)nc2c(ncn2C2OC(COP(=O)([O-])OP(=O)(O)CP(=O)(O)OCC3OC(n4c[n+](C)c5c(O)nc(N)nc54)C(O)C3O)C(O)C2O)c1=O (stereo not drawn); 6.37

Now take the following molecule into account.
Request: Consider the molecule C#CCn1c(N)nc2c(ncn2C2OC(COP(=O)([O-])OP(=O)(O)NP(=O)(O)OCC3OC(n4c[n+](C)c5c(O)nc(N)nc54)C(O)C3O)C(O)C2O)c1=O (stereo not drawn) and give its recorded IC50.
Response: 3.48

----------
Molecular target: human decapping scavenger enzyme (hDcpS) (Homo sapiens, UniProt Q96C86)
Sequence (Q96C86 whole entry): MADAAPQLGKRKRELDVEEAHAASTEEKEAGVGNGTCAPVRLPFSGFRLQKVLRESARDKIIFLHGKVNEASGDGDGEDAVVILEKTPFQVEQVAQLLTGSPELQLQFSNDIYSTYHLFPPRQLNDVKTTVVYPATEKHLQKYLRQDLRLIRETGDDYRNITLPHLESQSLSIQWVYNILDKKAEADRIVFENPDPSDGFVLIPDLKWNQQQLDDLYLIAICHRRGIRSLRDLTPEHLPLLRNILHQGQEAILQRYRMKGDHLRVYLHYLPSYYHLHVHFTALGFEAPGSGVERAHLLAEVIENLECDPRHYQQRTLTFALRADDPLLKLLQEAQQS
Assay: in vitro
Settings: pH 7.6
Measured quantity: half-life at 30 µM (min)
Answers are plain numbers, in min.

Request: Consider the compound C#CCn1c(N)nc2c(ncn2C2OC(COP(=O)(O)OP(=O)([O-])OP(=O)(O)OCC3OC(n4c[n+](C)c5c(O)nc(N)nc54)C(O)C3O)C(O)C2O)c1=O (stereo not shown) [Compound 1] and give its recorded half-life at 30 µM.
Response: 15.8

----------
Target: murine eIF4E (Mus musculus)
Experiment: Pyrene fluorescence intensity competition binding assay for eIF4E
Details: 30 °C; 75 nM eIF4E, 10 nM pyrene-labeled probe; triplicate
Measured quantity: pIC50
Give bare numbers, as −log10 of the molar value.

Cn1c[n+]([C@@H]2O[C@H](COP(=O)(O)OP(=O)(O)OP(=O)(O)OC[C@H]3O[C@@H](n4cnc5c(=O)[nH]c(N)nc54)[C@H](O)[C@@H]3O)[C@@H](O)[C@H]2O)c2nc(N)[nH]c(=O)c21 [m^7Gp3G, reference compound]; 5.46
C#CCn1c(N)nc2c(ncn2C2OC(COP(=O)(O)OP(=O)([O-])OP(=O)(O)OCC3OC(n4c[n+](C)c5c(O)nc(N)nc54)C(O)C3O)C(O)C2O)c1=O (stereo not drawn); 5.45

Now take the following compound into account.
Request: Consider the compound C#CCn1c(N)nc2c(ncn2C2OC(COP(=O)(O)NP(=O)(O)OP(=O)([O-])OCC3OC(n4c[n+](C)c5c(O)nc(N)nc54)C(O)C3O)C(O)C2O)c1=O (stereo not drawn) and give its recorded pIC50.
Response: 5.67

----------
Target: murine eIF4E (Mus musculus, UniProt P63073)
Sequence (P63073 whole entry): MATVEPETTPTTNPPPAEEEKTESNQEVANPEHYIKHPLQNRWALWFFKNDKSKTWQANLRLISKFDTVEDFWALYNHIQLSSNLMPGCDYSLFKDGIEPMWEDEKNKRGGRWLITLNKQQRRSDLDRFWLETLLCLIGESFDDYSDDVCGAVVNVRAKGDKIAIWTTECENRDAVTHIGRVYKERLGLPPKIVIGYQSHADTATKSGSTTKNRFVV
Assay: Pyrene fluorescence intensity competition binding assay for eIF4E
Conditions: 20 °C
Measured quantity: IC50
Entry format: amount then unit.

C#CCn1c(N)nc2c(ncn2C2OC(COP(=O)(O)CP(=O)(O)OP(=O)([O-])OCC3OC(n4c[n+](C)c5c(O)nc(N)nc54)C(O)C3O)C(O)C2O)c1=O (stereo not drawn) [Compound 4]; 5.51 µM

List the reported IC50 of each molecule below.
1. Cn1c[n+]([C@@H]2O[C@H](COP(=O)(O)OP(=O)(O)OP(=O)(O)OC[C@H]3O[C@@H](n4cnc5c(=O)[nH]c(N)nc54)[C@H](O)[C@@H]3O)[C@@H](O)[C@H]2O)c2nc(N)[nH]c(=O)c21 [m^7Gp3G, reference compound]
2. C#CCn1c(N)nc2c(ncn2C2OC(COP(=O)([O-])OP(=O)(O)CP(=O)(O)OCC3OC(n4c[n+](C)c5c(O)nc(N)nc54)C(O)C3O)C(O)C2O)c1=O (stereo not drawn) [Compound 2]
3. C#CCn1c(N)nc2c(ncn2C2OC(COP(=O)(O)OP(=O)([O-])OP(=O)(O)OCC3OC(n4c[n+](C)c5c(O)nc(N)nc54)C(O)C3O)C(O)C2O)c1=O (stereo not drawn) [Compound 1]
4. C#CCn1c(N)nc2c(ncn2C2OC(COP(=O)(O)NP(=O)(O)OP(=O)([O-])OCC3OC(n4c[n+](C)c5c(O)nc(N)nc54)C(O)C3O)C(O)C2O)c1=O (stereo not drawn) [Compound 5]
5. C#CCn1c(N)nc2c(ncn2C2OC(COP(=O)([O-])OP(=O)(O)NP(=O)(O)OCC3OC(n4c[n+](C)c5c(O)nc(N)nc54)C(O)C3O)C(O)C2O)c1=O (stereo not drawn) [Compound 3]

Response:
1. 3.04 µM
2. 6.57 µM
3. 2.92 µM
4. 1.85 µM
5. 3.06 µM

----------
Molecular target: murine eIF4E (Mus musculus, UniProt P63073)
Experiment: Pyrene fluorescence intensity competition binding assay for eIF4E
Conditions: 37 °C; calculated from IC50
Measured quantity: Kd (nM)
Answers are plain numbers, in nM.

Would you please look over these solved cases?
C#CCn1c(N)nc2c(ncn2C2OC(COP(=O)([O-])OP(=O)(O)CP(=O)(O)OCC3OC(n4c[n+](C)c5c(O)nc(N)nc54)C(O)C3O)C(O)C2O)c1=O (stereo not drawn); 836
C#CCn1c(N)nc2c(ncn2C2OC(COP(=O)(O)CP(=O)(O)OP(=O)([O-])OCC3OC(n4c[n+](C)c5c(O)nc(N)nc54)C(O)C3O)C(O)C2O)c1=O (stereo not drawn); 826
C#CCn1c(N)nc2c(ncn2C2OC(COP(=O)(O)OP(=O)([O-])OP(=O)(O)OCC3OC(n4c[n+](C)c5c(O)nc(N)nc54)C(O)C3O)C(O)C2O)c1=O (stereo not drawn); 371

List the reported Kd of each compound below.
1. C#CCn1c(N)nc2c(ncn2C2OC(COP(=O)([O-])OP(=O)(O)NP(=O)(O)OCC3OC(n4c[n+](C)c5c(O)nc(N)nc54)C(O)C3O)C(O)C2O)c1=O (stereo not drawn)
2. Cn1c[n+]([C@@H]2O[C@H](COP(=O)(O)OP(=O)(O)OP(=O)(O)OC[C@H]3O[C@@H](n4cnc5c(=O)[nH]c(N)nc54)[C@H](O)[C@@H]3O)[C@@H](O)[C@H]2O)c2nc(N)[nH]c(=O)c21 [m^7Gp3G, reference compound]
3. C#CCn1c(N)nc2c(ncn2C2OC(COP(=O)(O)NP(=O)(O)OP(=O)([O-])OCC3OC(n4c[n+](C)c5c(O)nc(N)nc54)C(O)C3O)C(O)C2O)c1=O (stereo not drawn)

Response:
1: 379; 2: 334; 3: 324

----------
Assignment: determine reported pKd for the given molecules.
Target: UniProt P63073
Experiment: Pyrene fluorescence intensity competition binding assay for eIF4E
Conditions: 20 °C; calculated from IC50
Numbers only, as −log10 of the molar value.

C#CCn1c(N)nc2c(ncn2C2OC(COP(=O)([O-])OP(=O)(O)NP(=O)(O)OCC3OC(n4c[n+](C)c5c(O)nc(N)nc54)C(O)C3O)C(O)C2O)c1=O (stereo not drawn) [Compound 3]; 6.55
C#CCn1c(N)nc2c(ncn2C2OC(COP(=O)(O)NP(=O)(O)OP(=O)([O-])OCC3OC(n4c[n+](C)c5c(O)nc(N)nc54)C(O)C3O)C(O)C2O)c1=O (stereo not drawn) [Compound 5]; 6.77

List the reported pKd of each molecule below.
1. C#CCn1c(N)nc2c(ncn2C2OC(COP(=O)([O-])OP(=O)(O)CP(=O)(O)OCC3OC(n4c[n+](C)c5c(O)nc(N)nc54)C(O)C3O)C(O)C2O)c1=O (stereo not drawn) [Compound 2]
2. C#CCn1c(N)nc2c(ncn2C2OC(COP(=O)(O)OP(=O)([O-])OP(=O)(O)OCC3OC(n4c[n+](C)c5c(O)nc(N)nc54)C(O)C3O)C(O)C2O)c1=O (stereo not drawn) [Compound 1]
3. C#CCn1c(N)nc2c(ncn2C2OC(COP(=O)(O)CP(=O)(O)OP(=O)([O-])OCC3OC(n4c[n+](C)c5c(O)nc(N)nc54)C(O)C3O)C(O)C2O)c1=O (stereo not drawn) [Compound 4]
4. Cn1c[n+]([C@@H]2O[C@H](COP(=O)(O)OP(=O)(O)OP(=O)(O)OC[C@H]3O[C@@H](n4cnc5c(=O)[nH]c(N)nc54)[C@H](O)[C@@H]3O)[C@@H](O)[C@H]2O)c2nc(N)[nH]c(=O)c21 [m^7Gp3G, reference compound]

Response:
1: 6.21; 2: 6.57; 3: 6.29; 4: 6.55

----------
Assignment: determine reported pIC50 for the given compounds.
Biological target: murine eIF4E (Mus musculus, UniProt P63073)
Test: Pyrene fluorescence intensity competition binding assay for eIF4E
Conditions: 37 °C
One number for each entry, as −log10 of the molar value.

Would you please look over these solved cases?
C#CCn1c(N)nc2c(ncn2C2OC(COP(=O)([O-])OP(=O)(O)NP(=O)(O)OCC3OC(n4c[n+](C)c5c(O)nc(N)nc54)C(O)C3O)C(O)C2O)c1=O (stereo not drawn); 5.43
C#CCn1c(N)nc2c(ncn2C2OC(COP(=O)(O)OP(=O)([O-])OP(=O)(O)OCC3OC(n4c[n+](C)c5c(O)nc(N)nc54)C(O)C3O)C(O)C2O)c1=O (stereo not drawn); 5.43
C#CCn1c(N)nc2c(ncn2C2OC(COP(=O)([O-])OP(=O)(O)CP(=O)(O)OCC3OC(n4c[n+](C)c5c(O)nc(N)nc54)C(O)C3O)C(O)C2O)c1=O (stereo not drawn); 5.09
C#CCn1c(N)nc2c(ncn2C2OC(COP(=O)(O)CP(=O)(O)OP(=O)([O-])OCC3OC(n4c[n+](C)c5c(O)nc(N)nc54)C(O)C3O)C(O)C2O)c1=O (stereo not drawn); 5.09
C#CCn1c(N)nc2c(ncn2C2OC(COP(=O)(O)NP(=O)(O)OP(=O)([O-])OCC3OC(n4c[n+](C)c5c(O)nc(N)nc54)C(O)C3O)C(O)C2O)c1=O (stereo not drawn); 5.49

Now take the following compound into account.
Request: Under murine eIF4E (Mus musculus, UniProt P63073), report pIC50 for Cn1c[n+]([C@@H]2O[C@H](COP(=O)(O)OP(=O)(O)OP(=O)(O)OC[C@H]3O[C@@H](n4cnc5c(=O)[nH]c(N)nc54)[C@H](O)[C@@H]3O)[C@@H](O)[C@H]2O)c2nc(N)[nH]c(=O)c21 [m^7Gp3G, reference compound]
Response: 5.48
